- Test system: Mus musculus
- Assay method text: Gastrointestinal toxicity in mouse assessed as tail bleeding time at 200 mg/kg, po after 30 mins
- Assay type: organism-based
- Design: dose 200 mg/kg, route oral
- Condition summary: in vivo, 0.5 h
# Time per entry
Unit s implied. Number only.

Solved entries (count: 8):
[
  {
    "Item smiles": "N[C@H]1CO[C@H](c2ccc(Cl)cc2)OC1",
    "Time, s": 119
  },
  {
    "Item smiles": "C[C@@H]1O[C@@H](C=Cc2ccccc2)OC[C@H]1N",
    "Time, s": 117.2
  },
  {
    "Item smiles": "Cc1ccc([C@H]2OC[C@@H](N)CO2)cc1",
    "Time, s": 118.3
  },
  {
    "Item smiles": "N[C@H]1CCO[C@@H](c2ccc([N+](=O)[O-])cc2)OC1",
    "Time, s": 117.8
  },
  {
    "Item smiles": "Cc1ccc([C@H]2OC[C@H](N)CO2)cc1",
    "Time, s": 118.5
  },
  {
    "Item smiles": "Cc1ccc([C@@H]2OC[C@@H](N)[C@H](C)O2)cc1",
    "Time, s": 120.4
  },
  {
    "Item smiles": "N[C@H]1CO[C@H](c2ccccc2)OC1",
    "Time, s": 119.3
  },
  {
    "Item smiles": "C[C@@H]1O[C@H](c2cccc([N+](=O)[O-])c2)OC[C@H]1N",
    "Time, s": 118.9
  }
]

Problem: Find Time for "N[C@H]1CO[C@@H](c2ccccc2)OC1" on Mus musculus and write it down.
Solution: 119.2

Problem: Find Time for "N[C@H]1CO[C@H](c2cccc([N+](=O)[O-])c2)OC1" on Mus musculus and write it down.
Solution: 118.8

Problem: Find Time for "C[C@@H]1O[C@H](c2ccc(Cl)cc2)OC[C@H]1N" on Mus musculus and write it down.
Solution: 119.6

* * *

- Test system: Mus musculus
- Assay method text: Gastrointestinal toxicity in mouse assessed as tail bleeding time at 200 mg/kg, po after 90 mins
- Type: organism-based
- Set-up: dose 200 mg/kg, route oral
- Condition summary: in vivo, 1.5 h
# Time per entry
Unit s implied. Number only.

[
  {
    "Item smiles": "Cc1ccc([C@@H]2OC[C@@H](N)[C@H](C)O2)cc1",
    "Measurement units": "s",
    "Time": 117.7
  }
]

Problem: Provide only the value of recorded Time for "C[C@@H]1O[C@@H](c2ccc([N+](=O)[O-])cc2)OC[C@H]1N"
Solution: 118.9

Problem: Provide only the value of recorded Time for "N[C@H]1CCO[C@H](c2ccc([N+](=O)[O-])cc2)OC1"
Solution: 117.9

Problem: Provide only the value of recorded Time for "N[C@H]1CCCO[C@H](c2ccc([N+](=O)[O-])cc2)OC1"
Solution: 117.7

* * *

- Test system: Mus musculus
- Assay method text: Gastrointestinal toxicity in mouse assessed as tail bleeding time at 200 mg/kg, po after 30 mins
- Assay type: organism-based
- Set-up: dose 200 mg/kg, route oral
- Condition summary: in vivo, 0.5 h
Value kind: Time (s)
Unit s implied. Number only.

[
  {
    "Item smiles": "C[C@@H]1O[C@H](c2ccccc2)OC[C@H]1N",
    "Measurement": 118.7
  },
  {
    "Item smiles": "N[C@H]1CO[C@@H](c2ccc([N+](=O)[O-])cc2)OC1",
    "Measurement": 119.4
  },
  {
    "Item smiles": "N[C@H]1CO[C@H](c2ccc([N+](=O)[O-])cc2)OC1",
    "Measurement": 119.5
  },
  {
    "Item smiles": "N[C@H]1CCO[C@H](c2ccc([N+](=O)[O-])cc2)OC1",
    "Measurement": 118.5
  },
  {
    "Item smiles": "N[C@H]1CCO[C@@H](c2ccc(Cl)cc2)OC1",
    "Measurement": 118.4
  },
  {
    "Item smiles": "C[C@@H]1O[C@@H](c2ccc([N+](=O)[O-])cc2)OC[C@H]1N",
    "Measurement": 118.4
  }
]

Problem: Provide only the value of recorded Time for "N[C@H]1CCCO[C@H](c2ccc(Cl)cc2)OC1"
Solution: 117.9

Problem: Provide only the value of recorded Time for "N[C@H]1CCCO[C@@H](c2cccc([N+](=O)[O-])c2)OC1"
Solution: 119.3

Problem: Provide only the value of recorded Time for "C[C@@H]1O[C@H](c2ccc([N+](=O)[O-])cc2)OC[C@H]1N"
Solution: 117.8

Problem: Provide only the value of recorded Time for "N[C@H]1CCCO[C@H](c2ccc([N+](=O)[O-])cc2)OC1"
Solution: 118.6

Problem: Provide only the value of recorded Time for "N[C@H]1CO[C@@H](c2ccc(Cl)cc2)OC1"
Solution: 118.5

* * *

# Time per entry
- Tested on: Mus musculus
- Assay method text: Gastrointestinal toxicity in mouse assessed as tail bleeding time at 200 mg/kg, po after 45 mins
- Format: organism-based
- Set-up: dose 200 mg/kg, route oral
- Condition summary: in vivo, 0.75 h

Solved entries (count: 3):
[
  {
    "Item smiles": "N[C@H]1CCO[C@H](c2ccc([N+](=O)[O-])cc2)OC1",
    "Time": "119 s"
  },
  {
    "Item smiles": "Cc1ccc([C@H]2OC[C@@H](N)CO2)cc1",
    "Time": "119 s"
  },
  {
    "Item smiles": "N[C@H]1CO[C@H](c2ccc([N+](=O)[O-])cc2)OC1",
    "Time": "117.7 s"
  }
]

Problem: Provide only the value of recorded Time for "N[C@H]1CCCO[C@H](c2ccc(Cl)cc2)OC1"
Solution: 118.7 s

* * *

- Tested on: Mus musculus
- Assay method text: Gastrointestinal toxicity in mouse assessed as tail bleeding time at 200 mg/kg, po after 60 mins
- Format: organism-based
- Design: dose 200 mg/kg, route oral
- Condition summary: in vivo, 1 h
# Time per entry
Unit s implied. Number only.

Problem: Provide only the value of recorded Time for "N[C@H]1CCO[C@H](c2ccc([N+](=O)[O-])cc2)OC1"
Solution: 118.6

* * *

- Test system: Mus musculus
- Assay method text: Gastrointestinal toxicity in mouse assessed as tail bleeding time at 200 mg/kg, po after 45 mins
- Assay type: organism-based
- Set-up: dose 200 mg/kg, route oral
- Condition summary: in vivo, 0.75 h
Value kind: Time (s)
Unit s implied. Number only.

[
  {
    "Item smiles": "C[C@@H]1O[C@H](c2ccc(Cl)cc2)OC[C@H]1N",
    "Time [s]": 118.6
  }
]

Let's switch to this compound now.
Problem: Provide only the value of recorded Time for "N[C@H]1CO[C@@H](c2cccc([N+](=O)[O-])c2)OC1"
Solution: 118.2

* * *

# Papp B→A per entry
- Assay method text: Permeability from basolateral to apical side of human Caco-2 cell membrane
- Assay type: ADME, cell-based
Unit ×10⁻⁶ cm/s implied. Number only.

Solved entries (count: 2):
[
  {
    "Item smiles": "C[C@@H]1O[C@@H](c2ccc([N+](=O)[O-])cc2)OC[C@H]1NC(=O)Cc1ccccc1",
    "Value kind": "Papp B→A",
    "Measurement units": "×10⁻⁶ cm/s",
    "Measurement": 6.98
  },
  {
    "Item smiles": "C[C@@H]1O[C@H](c2ccc(Cl)cc2)OC[C@H]1N",
    "Value kind": "Papp B→A",
    "Measurement units": "×10⁻⁶ cm/s",
    "Measurement": 6.88
  }
]

Problem: Provide only the value of recorded Papp B→A for "C[C@@H]1O[C@@H](c2ccc([N+](=O)[O-])cc2)OC[C@H]1N"
Solution: 6.96

Problem: Provide only the value of recorded Papp B→A for "C[C@@H]1O[C@H](/C=C/c2ccccc2)OC[C@H]1NC(=O)Cc1ccccc1"
Solution: 7.15

Problem: Provide only the value of recorded Papp B→A for "C[C@@H]1O[C@@H](C=Cc2ccccc2)OC[C@H]1N"
Solution: 7.17

* * *

- System: Caco-2
- Assay method text: Ratio of permeability from apical to basolateral side over basolateral to apical side of human Caco-2 cell membrane
- Format: ADME, cell-based
# Ratio per entry

Solved entries (count: 6):
[
  {
    "Item smiles": "C[C@@H]1O[C@H](c2ccc(Cl)cc2)OC[C@H]1NC(=O)Cc1ccccc1",
    "Ratio": 1.48
  },
  {
    "Item smiles": "C[C@@H]1O[C@@H](c2ccc([N+](=O)[O-])cc2)OC[C@H]1N",
    "Ratio": 1.87
  },
  {
    "Item smiles": "C[C@@H]1O[C@H](c2ccc([N+](=O)[O-])cc2)OC[C@H]1NC(=O)Cc1ccccc1",
    "Ratio": 1.49
  },
  {
    "Item smiles": "C[C@@H]1O[C@H](C=Cc2ccccc2)OC[C@H]1N",
    "Ratio": 1.46
  },
  {
    "Item smiles": "C[C@@H]1O[C@@H](c2ccc(Cl)cc2)OC[C@H]1NC(=O)Cc1ccccc1",
    "Ratio": 1.46
  },
  {
    "Item smiles": "C[C@@H]1O[C@@H](C=Cc2ccccc2)OC[C@H]1N",
    "Ratio": 1.43
  }
]

Let's switch to this compound now.
Problem: Provide only the value of recorded Ratio for "C[C@@H]1O[C@@H](c2ccc([N+](=O)[O-])cc2)OC[C@H]1NC(=O)Cc1ccccc1"
Solution: 1.49
